- TARGET_SYSTEM: Human MC1R (Homo sapiens, UniProt Q01726)
- Construct: endogenous in cells; host or cells: human melanoma cell line HBL
- Sequence (Q01726 whole entry): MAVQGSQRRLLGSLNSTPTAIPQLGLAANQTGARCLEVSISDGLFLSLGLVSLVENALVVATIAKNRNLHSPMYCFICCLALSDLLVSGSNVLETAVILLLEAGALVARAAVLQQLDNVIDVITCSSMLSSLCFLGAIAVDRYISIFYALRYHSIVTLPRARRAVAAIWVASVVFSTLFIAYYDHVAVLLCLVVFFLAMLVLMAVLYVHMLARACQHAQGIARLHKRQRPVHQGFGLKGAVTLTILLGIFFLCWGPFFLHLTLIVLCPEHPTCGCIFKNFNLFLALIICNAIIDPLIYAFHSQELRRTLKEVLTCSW
- ASSAY_REMARKS: MCR agonist measurement (cAMP measurement), human MC1R agonist activity in human melanoma cell line HBL
- Format: cell-based
- CONDITION_SUMMARY: Intrinsic Activity; vehicle cAMP = 0%, αMSH at 10^-6 M = 100%; HBL cells
MEASUREMENT_TYPE: Human MC1R IA % (%)

* COc1ccc([C@@H]2CN(C(C)(C)C)C[C@@]2(F)C(=O)N2CC[C@@H](c3ccc(C(F)(F)F)cc3N3CCC(C(=O)O)CC3)C2)cc1.Cl.Cl [Example 286a] | 105
* COc1ccc([C@@H]2CN(C3CCCC3)C[C@@]2(F)C(=O)N2CC(c3ccc(C(F)(F)F)cc3N3CCC(C(=O)O)CC3)C(F)(F)C2)cc1 (single isomer, unassigned) [Example 293] | 99
* COC[C@@H]1C[C@@H](c2ccc(C(F)(F)F)cc2N2CCC(C(=O)O)CC2)CN1C(=O)[C@]1(OC)CN([C@H]2CC[C@H](OC(C)C)CC2)C[C@H]1c1ccc(OC)cc1 [Example 160] | 106
* COc1ccc([C@@H]2CN(C(C)(C)C)C[C@@]2(F)C(=O)N2CCC(c3ccc(C(F)(F)F)cc3N3CCN(C(N)=O)CC3)CC2)cc1.Cl.Cl [Example 284] | 81
* COC[C@@]1(F)CN(C(=O)[C@]2(F)CN([C@H]3CC[C@H](OC)CC3)C[C@H]2c2ccc(OC)cc2)C[C@@H]1c1ccc(C(F)(F)F)cc1N1CCC(C(=O)O)CC1 [Example 120] | 109

====

- TARGET_SYSTEM: Human MC1R (Homo sapiens, UniProt Q01726)
- Construct: endogenous in cells
- ASSAY_REMARKS: MCR agonist measurement (cAMP measurement), human MC1R agonist activity in human melanoma cell line HBL
- CONDITION_SUMMARY: HBL cells, 37° C. for 30 minutes, intracellular cAMP by fluorescence method
MEASUREMENT_TYPE: EC50 (nM)

Example entries and their recorded answers appear below.
- COc1ccc([C@@H]2CN([C@H]3CC[C@H](OC)CC3)C[C@@]2(F)C(=O)N2CC[C@@H](c3ccc(F)cc3N3CCC(C(=O)O)CC3)C2)cc1 [Example 218]: 4.3
- COC[C@@H]1C[C@@H](c2ccc(Cl)cc2N2CCC(C(=O)O)CC2)CN1C(=O)[C@]1(F)CN([C@H]2CC[C@H](OC)CC2)C[C@H]1c1ccc(OC)cc1 [Example 111]: 5.9
- COc1ccc([C@@H]2CN(C(C)(C)C)C[C@@]2(F)C(=O)N2CCC(c3ccc(C(F)(F)F)cc3N3CCC(C(=O)O)CC3)CC2)c(F)c1 [Example 75]: 57

a. COC[C@H]1CN(C(=O)[C@]2(F)CN(c3ccc(OC)nn3)C[C@H]2c2ccc(OC)cc2)C[C@@H]1c1ccc(C(F)(F)F)cc1N1CCC(C(=O)O)CC1 [Example 64]
b. COc1ccc([C@@H]2CN(C3CCCC3)C[C@@]2(F)C(=O)N2C[C@H](c3ccc(C(F)(F)F)cc3N3CCC(C(=O)O)CC3)[C@@H](C(C)(C)O)C2)cc1.Cl.Cl [Example 228, dihydrochloride]
Select one: a or b . Criterion: greater recorded EC50. Respond using the label that marks the chosen record. a
(a: 19 nM, b: 11 nM)

A. COC[C@H]1CN(C(=O)[C@]2(F)CN([C@H]3CC[C@H](OC)CC3)C[C@H]2c2ccc(OC)cc2)C[C@@H]1c1ccc(C(F)(F)F)cc1N1CCC(C)(C(=O)O)CC1 [Example 103]
B. COC[C@@H]1C[C@@H](c2ccc(C(F)(F)F)cc2N2CCC(C(=O)O)CC2)CN1C(=O)[C@]1(F)CN(C2CCCCC2)C[C@H]1c1ccc(OC)cc1 [Example 138]
C. COC[C@@]1(F)CN(C(=O)[C@]2(F)CN([C@H]3CC[C@H](OC)CC3)C[C@H]2c2ccc(OC)cc2)C[C@@H]1c1ccc(C(F)(F)F)cc1N1CCC(C(=O)O)CC1 [Example 120]
D. COC[C@@H]1C[C@@H](c2ccc(F)cc2N2CCC(C(=O)O)CC2)CN1C(=O)[C@]1(F)CN([C@H]2CC[C@H](OC)CC2)C[C@H]1c1ccc(OC)cc1.Cl.Cl [Example 147, dihydrochloride]
Sort (4 compounds) by EC50: min first. The reply should contain the labels ordered as requested. B, D, C, A

P. COc1ccc([C@@H]2CN(C(C)(C)C)C[C@@]2(F)C(=O)N2CCC(c3ccc(C(F)(F)F)cc3N3CCNCC3)CC2)cc1 [Example 281]
Q. COC[C@@]1(OC)CN(C(=O)[C@]2(F)CN([C@H]3CC[C@H](OC)CC3)C[C@H]2c2ccc(OC)cc2)C[C@@H]1c1ccc(C(F)(F)F)cc1N1CCC(C(=O)O)CC1 [Example 156]
R. COC[C@H]1CN(C(=O)[C@]2(F)CN(C3CCCC3)C[C@H]2c2ccc(OC)cc2)C[C@@H]1c1ccc(OC(F)(F)F)cc1N1CCC(C(=O)O)CC1 [Example 130]
S. COc1ccc([C@@H]2CN(C(C)(C)C)C[C@@]2(F)C(=O)N2CC[C@@H](c3ccc(C(F)(F)F)cc3N3CCC(C(=O)O)CC3)C2)cc1.Cl.Cl [Example 286a, dihydrochloride]
T. COc1ccc([C@@H]2CN(C3CCN(C(CF)CF)CC3)C[C@@]2(F)C(=O)N2CC[C@@H](c3ccc(C(F)(F)F)cc3N3CCC(C(=O)O)CC3)C2)cc1 [Example 219]
List these items ordered by EC50, big to small. Form entry: labels listed in requested order. Q, P, R, T, S
(Q: 29 nM, P: 19 nM, R: 11 nM, T: 6.7 nM, S: 4.4 nM)

I. COc1ccc([C@@H]2CN(C3CCCC3)C[C@@]2(F)C(=O)N2C[C@H](c3ccc(F)cc3N3CCC(C(=O)O)CC3)[C@@H](C)C2)cc1 [Example 100]
II. COc1ccc([C@@H]2CN(C3CCN(C(CF)CF)CC3)C[C@@]2(F)C(=O)N2CCC(c3ccc(C(F)(F)F)cc3N3CCC(C(=O)O)CC3)CC2)cc1 [Example 193]
Parameter check: reported EC50 is higher for which label, I or II ? Answer by quoting the chosen item's label. II
(II: 17 nM, I: 9.7 nM)

====

- TARGET_SYSTEM: Human MC1R (Homo sapiens)
- Construct: endogenous in cells
- ASSAY_REMARKS: MCR agonist measurement (cAMP measurement), human MC1R agonist activity in human melanoma cell line HBL
- CONDITION_SUMMARY: HBL cells, 37° C. for 30 minutes, intracellular cAMP by fluorescence method
MEASUREMENT_TYPE: EC50 (nM)

• COC[C@@H]1C[C@@H](c2ccc(C(F)(F)F)cc2N2CCC(C(=O)O)CC2)CN1C(=O)[C@]1(F)CN(C2CCOCC2)C[C@H]1c1ccc(OC)cc1 = 7.3

I. COC[C@H]1CN(C(=O)[C@]2(F)CN(C3CCCCC3)C[C@H]2c2ccc(OC)cc2)C[C@@H]1c1ccc(C(F)(F)F)cc1N1CCC(C(=O)O)CC1
II. COC[C@H]1CN(C(=O)[C@]2(F)CN(C3CCCC3)C[C@H]2c2ccc(C)cc2)C[C@@H]1c1ccc(C(F)(F)F)cc1N1CCC(C(=O)O)CC1
Recorded EC50 values differ for I and II ; which one is higher? Answer by stating the label of the chosen item. II
(II: 17 nM, I: 6.5 nM)

====

- TARGET_SYSTEM: Human MC1R (Homo sapiens, UniProt Q01726)
- Construct: endogenous in cells
- ASSAY_REMARKS: MCR agonist measurement (cAMP measurement), human MC1R agonist activity in human melanoma cell line HBL
- CONDITION_SUMMARY: HBL cells, 37° C. for 30 minutes, intracellular cAMP by fluorescence method
- Protocol: (1) Method for Culturing Cells Human MC1R agonist activity measurement was carried out by using human melanoma cell line HBL. Culture of HBL: F-10 Nutrient Mixture containing 10% FCS and Penicillin-streptomycin was used in the culture. (2) cAMP Assay and Data Calculation Each compound solution having each concentration was mixed with cAMP assay buffer (HBSS (Hank's Balanced Salt Solution) containing 10 mM HEPES and 0.1% BSA), and dispensed into 96 well plate. […]
MEASUREMENT_TYPE: EC50 (nM)

Solved cases below.
* COc1ccc([C@@H]2CN(C(C)(C)C)C[C@@]2(F)C(=O)N2CCC(c3ccc(C(F)(F)F)cc3C(N)=O)CC2)cc1 [Example 267] | 80
* COc1ccc([C@@H]2CN(CCCC(=O)N(C)C)C[C@@]2(F)C(=O)N2CCC(c3ccc(C(F)(F)F)cc3N3CCC(C(=O)O)CC3)CC2)cc1 [Example 304] | 8.7
* COc1ccc([C@@H]2CN(C3CCN(C(CF)CF)CC3)C[C@@]2(F)C(=O)N2CC[C@@H](c3ccc(F)cc3N3CCC(C(=O)O)CC3)C2)cc1 [Example 220] | 2.8

a. COC[C@@H]1C[C@@H](c2ccc(C(F)(F)F)cc2N2CCC(C(=O)O)CC2)CN1C(=O)[C@]1(OC)CN([C@H]2CC[C@H](OC(C)C)CC2)C[C@H]1c1ccc(OC)cc1 [Example 160]
b. COc1ccc([C@@H]2CN(C(C)(C)C)C[C@@]2(F)C(=O)N2C[C@H](CO)[C@@H](c3ccc(C(F)(F)F)cc3N3CCC(C(=O)O)CC3)C2)cc1.Cl.Cl [Example 224, dihydrochloride]
Smaller EC50 value? Options are a and b State your choice using its label. a
